Tested on: M-07e cells
Assay: M-07e cellular assay (SCF-mediated cell proliferation)
Type: cell-based
Details: Homo sapiens, 72 hours, CellTiter Glo
pEC50: −log10 of the molar value.
quantity-name: pEC50

Look up pEC50 for this molecule: `CCOC(=O)N1CC(c2nc(-c3ccc(C)c(NC(=O)c4cnn5ccc(N6CC7(COC7)C6)cc45)c3)no2)C1` > 7.00

Quick check: pEC50 of COC(=O)N1CCC(c2nc(-c3ccc(C)c(NC(=O)c4cnn5ccc(N6CC7(COC7)C6)cc45)c3)no2)C1 (centres unmarked) ? > 7.00

I would be grateful if you could share the reported pEC50 for `Cc1ccc(-c2noc([C@H]3C[C@@H]3F)n2)cc1NC(=O)c1cnn2ccc(N3CC4(CN(C(=O)OC(C)(C)C)C4)C3)cc12` . 6.00 to 7.00

Please give the measured pEC50 for this molecule: `Cc1ccc(-c2ncc(C3CC3)cn2)cc1NC(=O)c1cnn2ccc(N3CC4(COC4)C3)cc12` > 7.00

What does the data say about its pEC50? Entry: `Cc1cc(C)n(-c2ncc(C(=O)Nc3cc(-c4noc([C@H]5C[C@@H]5F)n4)ccc3C)o2)n1` < 6.00

Fill blank: measured pEC50 of the molecule `Cc1ccc(-c2nnc([C@H]3C[C@@H]3F)o2)cc1NC(=O)c1cnc(-c2ccc3c(c2)CC(=O)N3)o1` is ____. 6.00 to 7.00

Any idea what its pEC50 is? The molecule is `Cc1ccc(-c2noc(C3CN(C(=O)NC4CC4)C3)n2)cc1NC(=O)c1cnn2ccc(N3CC4(COC4)C3)cc12` < 6.00

Form field: reported pEC50 of `Cc1ccc(-c2noc([C@H]3C[C@@H]3F)n2)cc1NC(=O)c1cnn2ccc(NC(=O)c3ccccc3)cc12` 6.00 to 7.00

Using the record for `Cc1ccc(-c2noc([C@H]3C[C@@H]3F)n2)cc1NC(=O)c1cnn2cc(-c3cn(CC4(C)COC4)nn3)ccc12` , report its pEC50. > 7.00

Report pEC50 for `Cc1ccc(-c2noc([C@H]3C[C@@H]3F)n2)cc1NC(=O)c1cnn2ccc(-c3c(C)nn(CCN4CCOCC4)c3C)cc12` please. > 7.00

# get_value(readout='pEC50', item= `Cc1ccc(-c2noc([C@H]3C[C@@H]3F)n2)cc1NC(=O)c1cnc(-c2ccc3c(c2)oc(=O)n3C)o1` ) 6.00 to 7.00

Quick one: pEC50 of `Cc1ccc(-c2noc([C@H]3C[C@@H]3F)n2)cc1NC(=O)c1cnn2ccc(-c3c(C)nn(CC(C)(C)O)c3C)cc12` ? > 7.00

Requested field: pEC50. Item: `Cc1ccc(-c2noc([C@H]3C[C@@H]3F)n2)cc1NC(=O)c1cnn2ccc(CN3CCOCC3)cc12` 6.00 to 7.00

Entry `Cc1ccc(-c2noc([C@H]3C[C@@H]3F)n2)cc1NC(=O)c1cnn2cc(-c3cn(CC(C)(C)O)nn3)ccc12` : reported pEC50 = ? > 7.00
